meta.source: paper PMC11696576

Biological target: recombinant human cPLA2α (Homo sapiens)
Sequence (P47712 1-749): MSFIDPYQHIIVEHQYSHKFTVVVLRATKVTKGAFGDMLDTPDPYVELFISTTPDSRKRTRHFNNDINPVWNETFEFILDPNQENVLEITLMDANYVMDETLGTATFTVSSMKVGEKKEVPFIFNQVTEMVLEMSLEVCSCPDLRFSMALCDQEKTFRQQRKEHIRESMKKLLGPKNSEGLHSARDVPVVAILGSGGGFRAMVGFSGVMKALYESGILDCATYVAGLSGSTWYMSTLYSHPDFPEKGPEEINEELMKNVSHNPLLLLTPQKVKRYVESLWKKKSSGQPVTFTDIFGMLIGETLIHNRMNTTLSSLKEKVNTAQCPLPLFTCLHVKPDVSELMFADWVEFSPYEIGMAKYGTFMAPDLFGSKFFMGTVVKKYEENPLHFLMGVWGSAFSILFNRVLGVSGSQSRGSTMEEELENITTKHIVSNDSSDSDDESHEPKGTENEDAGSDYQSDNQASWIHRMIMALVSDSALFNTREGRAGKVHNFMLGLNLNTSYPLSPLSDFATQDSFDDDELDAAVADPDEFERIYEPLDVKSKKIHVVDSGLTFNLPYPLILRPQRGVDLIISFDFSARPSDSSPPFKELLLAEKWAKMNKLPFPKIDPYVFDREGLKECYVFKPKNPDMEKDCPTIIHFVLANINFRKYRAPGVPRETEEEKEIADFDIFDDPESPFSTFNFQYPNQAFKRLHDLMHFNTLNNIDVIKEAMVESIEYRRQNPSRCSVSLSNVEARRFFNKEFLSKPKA
Test: radioactivity-based mixed micelle assay, cPLA2α
Type: biochemical
Conditions: average of triplicates
endpoint: cPLA2 % inhibition at 0.091 mole fraction, average (%)

[
  {
    "compound": "CCCCCCCCc1ccc(OCC(=O)c2nc(C(=O)OCC)cs2)cc1 [GK401]",
    "val": 88.7
  },
  {
    "compound": "CCCCCCCCc1ccc(OC(C)C(=O)c2nc(C(=O)OC)cs2)cc1 (stereo not drawn) [GK402]",
    "val": 79.2
  },
  {
    "compound": "CCCCCCSc1ccc(OC(C)C(=O)c2nc(C(=O)OC)cs2)cc1 (stereo not drawn) [GK449]",
    "val": 97.5
  },
  {
    "compound": "COC(=O)c1csc(C(=O)COc2ccc(Oc3ccccc3)cc2)n1 [GK403]",
    "val": 95.4
  },
  {
    "compound": "CCCCCCCOc1ccc(OC(C)C(=O)c2nc(C(=O)OC)cs2)cc1 (stereo not drawn) [GK439]",
    "val": 96.6
  },
  {
    "compound": "COC(=O)c1csc(C(=O)COc2ccc(Oc3ccc(F)cc3)cc2)n1 [GK440]",
    "val": 100.3
  }
]

----------
Assay: stability in human plasma (LC-MS/MS)
Assay type: in vitro ADME
Conditions: % of the compound remaining after 4 h
Description: The stability of the analogs in human plasma was studied over approximately 24 h by LC-MS/MS and the results at 4 h and the final timepoint (20–25 h) are included in Table 1. The metabolic stability of the compounds was determined through in vitro stability assays in human plasma. […] Two or three samples were each measured in technical triplicates to give the final % recovery.
endpoint: Stability in human plasma 4 h (%)

[
  {
    "compound": "CCCCCCCCc1ccc(OCC(=O)c2nc(C(=O)OC)cs2)cc1 [GK470]",
    "Stability in human plasma 4 h / %": 60.6
  },
  {
    "compound": "CCCCCCCOc1ccc(OC(C)C(=O)c2nc(C(=O)OC)cs2)cc1 (centres unmarked) [GK439]",
    "Stability in human plasma 4 h / %": 59.9
  }
]

[P] COC(=O)c1csc(C(=O)COc2ccc(Oc3ccccc3)cc2)n1 [GK403]
[Q] CCCCCCCCc1ccc(OCC(=O)c2nc(C(=O)OCC)cs2)cc1 [GK401]
[R] COC(=O)c1csc(C(=O)C(C)Oc2ccc(Oc3ccccc3)cc2)n1 (centres unmarked) [GK428]
Endpoint returns the given compounds ordered by ascending Stability in human plasma 4 h. Use the labels to give the ranking in the order requested.
P, R, Q

[A] CCCCCCSc1ccc(OCC(=O)c2nc(C(=O)OC)cs2)cc1 [GK427]
[B] COC(=O)c1csc(C(=O)COc2ccc(Oc3ccc(F)cc3)cc2)n1 [GK440]
Response body: label of entry with the larger Stability in human plasma 4 h; valid values A , B . Mark your selection by writing its label.
A
